Values compiled from patent US20250236578A1.

Test system: PC3 cell line
Test: PI-positive cell count, prostate cancer cells (IncuCyte)
Format: cell-based, Human
Conditions: Prostate cancer PC3, 2 μg/ml, 24 h post-treatment
metric: Number of cells (PI-positive)
Write no unit; give the number alone.

- compound: "CCCCCCc1cc(O)c(C2C=C(C)CCC2C(C)(C)O)c(O)c1 (stereo not drawn) [Formula 1]"
  test-result: 54.13
- compound: "CCCCCCCc1cc(O)c(C2C=C(C)CCC2C(C)(C)O)c(O)c1 (stereo not drawn) [Formula 4]"
  test-result: 57.27
- compound: "C=C(C)[C@@H]1CCC(C)=C[C@H]1c1c(O)cc(CCCCC)cc1O [CBD, cannabidiol, reference compound]"
  test-result: 22.53
- compound: "CCCCCCC(C)(C)c1cc(O)c(C2C=C(C)CCC2C(C)(C)O)c(O)c1 (stereo not drawn) [Formula 7]"
  test-result: 81.80
- compound: "CCCCCc1cc(O)c(C2CC(C)CCC2C(C)(C)O)c(O)c1 (stereo not drawn) [Formula 2]"
  test-result: 76.93

Proceeding to the next compound to report its Number of cells (PI-positive).
Sample CCCCCc1cc(O)c(C2C=C(C)CCC2C(C)(C)O)c(O)c1C(=O)OC (stereo not drawn) [Formula 12] ; Number of cells (PI-positive) observed: 53.93

* * *

# Cortisol per entry
Test system: Human adrenal cells
Assay: Steroidogenesis: cortisol secretion by Forskolin-stimulated human adrenal cells (ELISA)
Assay type: cell-based
Details: inhibitor 1 μg/mL, 24 h, Forskolin 10 μM
Response body: numeric value in ng/mL, unit text excluded.

- compound: "CCCCCc1cc(O)c(C2C=C(C)CCC2C(C)(C)O)c(O)c1C(=O)OC (centres unmarked) [Formula 12]"
  target: "Human adrenal cells"
  unit-string: "ng/mL"
  Cortisol: 45
- compound: "CCCCCCCc1cc(O)c(C2C=C(C)CCC2C(C)(C)O)c(O)c1 (centres unmarked) [Formula 4]"
  target: "Human adrenal cells"
  unit-string: "ng/mL"
  Cortisol: 35
- compound: "C=C(C)[C@@H]1CCC(C)=C[C@H]1c1c(O)cc(CCCCC)cc1O [CBD, cannabidiol, reference compound]"
  target: "Human adrenal cells"
  unit-string: "ng/mL"
  Cortisol: 62
- compound: "CCCCCc1cc(O)c(C2C=C(C)CCC2C(C)(C)O)c(O)c1C(=O)NCCCN1CCOCC1 (centres unmarked) [Formula 14]"
  target: "Human adrenal cells"
  unit-string: "ng/mL"
  Cortisol: 45
- compound: "CCCN(CCOc1c(Cl)cc(Cl)cc1Cl)C(=O)n1ccnc1 [Prochloraz, reference compound]"
  target: "Human adrenal cells"
  unit-string: "ng/mL"
  Cortisol: 23
- compound: "CCCCCCC(C)(C)c1cc(O)c(C2C=C(C)CCC2C(C)(C)O)c(O)c1 (centres unmarked) [Formula 7]"
  target: "Human adrenal cells"
  unit-string: "ng/mL"
  Cortisol: 47
- compound: "CCCCCc1cc(O)c(C2CC(C)CCC2C(C)(C)O)c(O)c1 (centres unmarked) [Formula 2]"
  target: "Human adrenal cells"
  unit-string: "ng/mL"
  Cortisol: 77

Proceeding to the next compound to report its Cortisol.
Sample CCCCCCc1cc(O)c(C2C=C(C)CCC2C(C)(C)O)c(O)c1 (centres unmarked) [Formula 1] ; Cortisol observed: 24
